Test: Acute toxicity per os in the mouse (LD50 at the 14th observation day)
Details: in vivo, po, mice, per os, 14th observation day, read-out: LD50 MICE OS
quantity: LD50 at 336 h (mg/kg)
// units = mg/kg; emit number, no label

query: Recorded LD50 at 336 h of `Cc1c(C(=O)O)c(C)n(C)c1C(=O)c1ccc(Cl)cc1Cl` , please.
result: 1400

====

Assay: Acute toxicity per os in the mouse (LD50 at the 14th observation day)
Details: in vivo, po, read-out: LD50 MICE OS
We label by threshold. Values of LD50 at 336 h strictly beneath 1000 mg/kg are y. Values of 1000 mg/kg and up are n.

Solved entries (count: 6):
Cc1c(C(=O)O)c(C)n(C)c1C(=O)c1ccc(Cl)cc1 [R=CH3, R1=Cl, R2=H, R3=H, reference compound]
y
COc1ccc(C(=O)c2c(C)c(C(=O)O)c(C)n2C)cc1
n
CCCCn1c(C)c(C(=O)O)c(C)c1C(=O)c1ccc(Cl)cc1
n
Cc1c(C(=O)O)c(C)n(Cc2ccccc2)c1C(=O)c1ccc(Cl)cc1
n
Cc1ccc(C(=O)c2c(C)c(C(=O)O)c(C)n2C)cc1
n
Cc1c(C(=O)O)c(C)n(Cc2ccccc2Cl)c1C(=O)c1ccc(Cl)cc1
n

Okay, now this compound:
query: State whether 1000 mg/kg exceeds LD50 at 336 h recorded for `Cc1c(C(=O)O)c(C)n(C)c1C(=O)c1ccc(Cl)c(Cl)c1` .
result: y

====

Test: Acute toxicity per os in the mouse (LD50 at the 14th observation day)
Details: in vivo, po, comparison compound, per os, read-out: LD50 mouse per os
Procedure: The analgesic activity of the compounds of for mula I, administered by the oral route has been determined by means of the following tests: • - Phenylquinone test in mice (Hendershot and Forsa ith - J. Pharmacol. Exp. Ther. 123, 237 (1959)) • - Hot plate test - Male albino mice, treated with increasing doses of the compound under test, are placed on a thermostatized plate at 55°C. The time necessary for the mouse to react to the painful stimulus is then measured. […]
quantity: LD50 at 336 h

query: Recorded LD50 at 336 h of COc1ccc2c3c1O[C@H]1[C@@H](O)C=C[C@H]4[C@@H](C2)N(C)CC[C@@]341.Cl [codeine hydrochloride, reference compound] , please.
result: 300 mg/kg

====

Test system: mice
Experiment: Phenylquinone test in mice (analgesic activity)
Format: in vivo
Details: Mus musculus; mice, oral; read-out: PHENYLQUINONE ED50 OS
# ED50 listing for each entry below
// units = mg/kg; emit number, no label

Some compounds with recorded ED50:
Cc1c(C(=O)O)c(C)n(C)c1C(=O)c1ccc(Cl)cc1Cl
10.9
Cc1c(C(=O)O)c(C)n(Cc2ccccc2Cl)c1C(=O)c1ccc(Cl)cc1
10.8
Cc1ccc(C(=O)c2c(C)c(C(=O)O)c(C)n2C)cc1
10
Cc1c(C(=O)O)c(C)n(C)c1C(=O)c1ccc(Cl)cc1 [R=CH3, R1=Cl, R2=H, R3=H, reference compound]
4.6
Cc1c(C(=O)O)c(C)n(C)c1C(=O)c1ccc(Cl)c(Cl)c1
7.5

query: // fetch mice ED50 for `COc1ccc(C(=O)c2c(C)c(C(=O)O)c(C)n2C)cc1`
result: 8.4

query: // fetch mice ED50 for `CCCCn1c(C)c(C(=O)O)c(C)c1C(=O)c1ccc(Cl)cc1`
result: 6.3

query: // fetch mice ED50 for `Cc1c(C(=O)O)c(C)n(Cc2ccccc2)c1C(=O)c1ccc(Cl)cc1`
result: 7.6

This collection of values is drawn from patent EP0152542A1.
